Assign λmax to each entry below.
run-description: Photographic single layer element: Dmax, Dmin, gamma and λmax after color development
test-parameters: Table 3, D99, pH 10.0, KS-2
Answers are plain numbers.

compound: CCCCCCCCCCCCCCCCS(=O)(=O)Nc1ccc(Cl)c(NC(=O)CC(=O)C2(C)COCOC2)c1 [Coupler D-4]
λmax: 454
--
compound: CCC(C)(C)c1ccc(OCCCC(=O)Nc2ccc(Cl)c(NC(=O)CC(=O)C3(C)COCOC3)c2)c(C(C)(C)CC)c1 [Coupler D-5]
λmax: 452

Report λmax for each item below.
1. CCCCCCCCCCCCCCCCS(=O)(=O)Nc1ccc(Cl)c(NC(=O)CC(=O)C(C)(C)C)c1 [P-V, reference compound]
2. CCC(C)(C)c1ccc(OCCCC(=O)Nc2ccc(Cl)c(NC(=O)CC(=O)C(C)(C)C)c2)c(C(C)(C)CC)c1 [P-VI, reference compound]
3. CCCCCCCCCCCCCCCCS(=O)(=O)Nc1ccc(OC)c(NC(=O)CC(=O)C2(C)COC(C)(C)OC2)c1 [Coupler D-2]

Solution:
449
447
446
